Origin of measurements: paper PMC5577653

assay: in vitro; conditions: cell culture medium (supplemented DMEM)
Square brackets hold non-standard residues; d marks the D form. Peptide text beside a SMILES is read from it.
Recorded Metric: metabolised at 96 h, 40 µM

[[record]]
compound = "CSCC[C@@H](NC(=O)[C@@H](CCCNC(=N)N)NC(=O)[C@@H](Cc1c[nH]c2ccccc12)NC(=O)[C@@H](CCC(N)=O)NC(=O)[C@@H](Cc1c[nH]c2ccccc12)NC(=O)[C@@H](CCCNC(=N)N)NC(=O)[C@@H](CCCNC(=N)N)NC(=O)[C@@H](CS)NC(=O)[C@@H](CCCCN)NC(=O)[C@H](N)Cc1ccccc1)C(=O)N[C@H](CCCCN)C(=O)N[C@H](CCCCN)C(=O)N[C@H](CC(C)C)C(=O)NCC(=O)O [D-LFcin17–30] (H-[dF][dK][dC][dR][dR][dW][dQ][dW][dR][dM][dK][dK][dL]G-OH)"
data_value = "≤ 30%"


###

experiment: in vitro; settings: cell culture medium (supplemented DMEM)
Ends that are not written are not given here.
Recorded Metric: metabolised at 24 h, 40 µM (%)

[[record]]
residue_sequence = "FKCRRWQWRMKKLG [LFcin17–30]"
recorded_metric = "metabolised at 24 h, 40 µM"
data_value = 50

